Target: α5β3γ2 GABAA R (Homo sapiens, UniProt P18507+P31644)
Sequence (P31644 32-462): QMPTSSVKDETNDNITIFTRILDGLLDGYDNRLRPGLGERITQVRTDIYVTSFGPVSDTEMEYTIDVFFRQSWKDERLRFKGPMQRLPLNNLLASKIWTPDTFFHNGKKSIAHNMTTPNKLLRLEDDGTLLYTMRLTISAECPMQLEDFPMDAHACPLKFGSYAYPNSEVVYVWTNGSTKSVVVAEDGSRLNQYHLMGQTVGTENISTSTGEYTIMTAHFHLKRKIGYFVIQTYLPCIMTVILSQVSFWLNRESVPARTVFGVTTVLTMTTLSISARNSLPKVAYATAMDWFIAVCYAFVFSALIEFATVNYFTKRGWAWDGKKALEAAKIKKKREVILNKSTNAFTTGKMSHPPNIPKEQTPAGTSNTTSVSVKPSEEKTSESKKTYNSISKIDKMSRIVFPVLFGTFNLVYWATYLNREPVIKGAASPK
Sequence (P28472 26-473 partner): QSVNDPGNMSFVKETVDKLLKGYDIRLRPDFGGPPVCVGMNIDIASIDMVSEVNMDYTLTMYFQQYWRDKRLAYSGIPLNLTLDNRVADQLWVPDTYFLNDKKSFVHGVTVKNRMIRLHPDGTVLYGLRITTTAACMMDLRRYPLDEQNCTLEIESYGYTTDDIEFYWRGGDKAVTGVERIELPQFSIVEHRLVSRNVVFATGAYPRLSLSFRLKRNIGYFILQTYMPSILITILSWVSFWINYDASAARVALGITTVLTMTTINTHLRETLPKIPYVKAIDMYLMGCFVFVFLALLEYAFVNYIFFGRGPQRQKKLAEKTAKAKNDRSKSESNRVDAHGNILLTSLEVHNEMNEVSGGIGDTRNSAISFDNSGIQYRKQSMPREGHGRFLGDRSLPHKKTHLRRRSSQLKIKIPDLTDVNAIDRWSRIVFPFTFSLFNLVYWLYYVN
Sequence (P18507 40-475): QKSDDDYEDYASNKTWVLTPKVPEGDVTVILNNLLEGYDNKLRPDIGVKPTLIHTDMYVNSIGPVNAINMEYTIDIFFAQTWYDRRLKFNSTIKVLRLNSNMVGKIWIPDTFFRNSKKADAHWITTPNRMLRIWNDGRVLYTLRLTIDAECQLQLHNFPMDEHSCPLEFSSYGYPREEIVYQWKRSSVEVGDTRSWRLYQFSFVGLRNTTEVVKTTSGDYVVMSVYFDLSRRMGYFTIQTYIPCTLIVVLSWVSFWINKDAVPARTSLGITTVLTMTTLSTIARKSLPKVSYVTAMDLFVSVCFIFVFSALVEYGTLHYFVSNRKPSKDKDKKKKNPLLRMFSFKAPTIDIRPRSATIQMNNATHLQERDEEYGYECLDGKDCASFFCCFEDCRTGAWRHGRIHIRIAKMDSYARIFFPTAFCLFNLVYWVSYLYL
Assay: Binding activity on GABAA R: inhibition of [3H]Ro15-1788 binding, α5 containing receptor
Conditions: ranges of the column heads; [3H]Ro15-1788, Ltk cell membranes
Method: Tissue culture and Membrane Preparation: The binding was performed on Ltk cells stably expressing GABAA R: […], α2β3γ2, α3β3γ2 and α5β3γ2 (provided by Merck Co., NJ, USA). Cells were seeded in 100 mm culture plates in DMEM/F12 medium containing 10% serum and antibiotics in 5% CO2 and allowed to grow for 1-2 days. […] Protein content was determined using BCA assay (Bio-Rad Labs, Reinach, Switzerland) with Bovine Serum Albumin (Sigma Aldrich, St. Louis, MO, USA) as the standard. […]
Measurement Type: Ki

compound="CC(C)c1noc(-c2ncn3c2Cc2cn(Cc4cccnc4)nc2-c2cc(Cl)ccc2-3)n1 [Compound 98]" endpoint_value="< 100 nM"
compound="COc1ccc2c(c1)-c1nn(C)cc1Cc1c(-c3nc(COC4CCOC4)no3)ncn1-2 (stereo not shown) [Compound 316]" endpoint_value="< 100 nM"
compound="COCCc1nc(-c2ncn3c2Cc2cn(C)nc2-c2cc(OC)ccc2-3)no1 [Compound 342]" endpoint_value="< 100 nM"
compound="COc1ccc2c(c1)-c1[nH]ncc1Cc1c(-c3ccnn3C)ncn1-2 [Compound 78]" endpoint_value="> 1000 nM"
